biological target: T1, Human LOX-1 full-length protein (human, UniProt P78380 1-273); test: flow cytometry, biotinylated antibody on primary human neutrophils, PE-streptavidin
T1 construct: also called huLOX-1/HEK293 cells; human LOX-1 transfected HEK293 cells
measurement_type: EC50 (µg/mL)
Express it in µg/mL; write the number only.

Recorded results for 5 binders are shown here.
# binder, units_text, EC50
measured = [
    ("FF6 (antibody, human IgG1, kappa, L234A L235A, V domains shown, Humaneered variant of E2E10, tested as full human IgG; Biotinylated for the neutrophil assay; also called LLG788; LLG788 (FF6)) VH: QVQLVQSGAEVKKPGASVKVSCKASGYTFTDYEVHWVRQAPGQGLEWMGAIHPGSGGAAYVQKFQGRVTMTRDTSISTAYMELSRLRSDDTAVYYCARWLPIDYWGQGTLVTVSS VL: DIQMTQSPSSVSASVGDRVTITCRASQGINNWLVWYQQKPGKAPKLLLYAASRLESGVPSRFSGSGSGTDYTLTISSLQPEDIATYYCQQYLITPYTFGQGTKLEIKR", "µg/mL", 0.28),
    ("FF4 (antibody, human IgG1, kappa, L234A L235A, V domains shown, Humaneered variant of E2E10, tested as full human IgG; the text and claims pair heavy chain 56 with light chain 66; Biotinylated for the neutrophil assay; also called LLG786; LLG786 (FF4)) VH: QVQLVQSGAEVKKPGASVKVSCKASGYTFTDYEVHWVRQAPGQGLEWMGAIHPGSGGAAYVQKFQGRVTMTRDTSISTAYMELSRLRSDDTAVYYCARWLPMDYWGQGTLVTVSS VL: DIQMTQSPSSVSASVGDRVTITCRASQGITNWLAWYQQKPGKAPKLLIYAASILESGVPSRFSGSGSGTDYTLTISSLQPEDIATYYCQQYLITPYTFGQGTKLEIKR", "µg/mL", 0.23),
    ("FF3 (antibody, human IgG1, kappa, L234A L235A, V domains shown, Humaneered variant of E2E10, tested as full human IgG; Biotinylated for the neutrophil assay; also called LLG785; LLG785 (FF3)) VH: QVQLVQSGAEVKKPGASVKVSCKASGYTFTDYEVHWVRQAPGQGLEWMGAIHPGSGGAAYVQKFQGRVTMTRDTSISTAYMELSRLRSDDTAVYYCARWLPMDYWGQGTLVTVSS VL: DIQMTQSPSSVSASVGDRVTITCRASQGINNWLVWYQQKPGKAPKLLIYAASSLQSGVPSRFSGSGSGADYTLTISSLQPEDFATYYCQQYLITPYTFGQGTKLEIKR", "µg/mL", 0.13),
    ("E2E10 (murine parental) (antibody, IgG1, V domains shown, Mouse hybridoma monoclonal antibody, IgG1 with a kappa light chain; Biotinylated in the SET and neutrophil assays; also called Clone 39.1E2E10; mouse parental) VH: QVQLQQSGAELVRPGASVKLSCKALGYTFTDYEMHWVKQTPVHGLEWIGAIHPGSGGAAYIQKFKGKATLTADKSSSTAHMELSSLTSEDSAVYYCTRWLPMDYWGQGTSVTVSS VL: DIQMTQSSSYLSVSLGGRVTITCKASDHINNWLAWYQQKPGNAPRLLISGATSLETGVPSRFSGSGSGKDYTLSITGLQTEDVATYYCQQYLITPYTFGGGTKLEIK", "µg/mL", 0.04),
    ("FF5 (antibody, human IgG1, kappa, L234A L235A, V domains shown, Humaneered variant of E2E10, tested as full human IgG; Biotinylated for the neutrophil assay; also called LLG787; LLG787 (FF5)) VH: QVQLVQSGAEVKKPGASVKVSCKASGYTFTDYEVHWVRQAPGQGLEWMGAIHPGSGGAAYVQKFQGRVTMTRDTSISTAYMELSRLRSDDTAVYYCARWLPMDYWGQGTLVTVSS VL: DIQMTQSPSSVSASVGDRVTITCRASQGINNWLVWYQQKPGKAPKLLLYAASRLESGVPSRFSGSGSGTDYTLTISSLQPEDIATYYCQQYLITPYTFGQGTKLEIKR", "µg/mL", 0.08),
]

Consider the binder FF1 (antibody, human IgG1, kappa, L234A L235A, V domains shown, Humaneered variant of E2E10, tested as full human IgG (captured or detected with anti-human IgG); Biotinylated for the neutrophil assay; also called LLG783; LLG783 (FF1)) VH: QVQLVQSGAEVKKPGASVKVSCKASGYTFTDYEVHWVRQAPGQGLEWMGAIHPGSGGAAYVQKFQGRVTMTRDTSTSTAYMELSSLRSDDTAVYYCARWLPMDYWGQGTLVTVSS VL: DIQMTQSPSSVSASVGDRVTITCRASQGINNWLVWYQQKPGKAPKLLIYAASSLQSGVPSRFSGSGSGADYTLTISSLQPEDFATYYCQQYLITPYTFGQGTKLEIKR . State its measured EC50. 0.15
